system.tested: Human PCSK9 (Genbank EF692496) containing a histidine (His)8 C-terminal tag (UniProt Q8NBP7 31-692)
Sequence (Q8NBP7 other isoform, or with tags, fused parts or gaps): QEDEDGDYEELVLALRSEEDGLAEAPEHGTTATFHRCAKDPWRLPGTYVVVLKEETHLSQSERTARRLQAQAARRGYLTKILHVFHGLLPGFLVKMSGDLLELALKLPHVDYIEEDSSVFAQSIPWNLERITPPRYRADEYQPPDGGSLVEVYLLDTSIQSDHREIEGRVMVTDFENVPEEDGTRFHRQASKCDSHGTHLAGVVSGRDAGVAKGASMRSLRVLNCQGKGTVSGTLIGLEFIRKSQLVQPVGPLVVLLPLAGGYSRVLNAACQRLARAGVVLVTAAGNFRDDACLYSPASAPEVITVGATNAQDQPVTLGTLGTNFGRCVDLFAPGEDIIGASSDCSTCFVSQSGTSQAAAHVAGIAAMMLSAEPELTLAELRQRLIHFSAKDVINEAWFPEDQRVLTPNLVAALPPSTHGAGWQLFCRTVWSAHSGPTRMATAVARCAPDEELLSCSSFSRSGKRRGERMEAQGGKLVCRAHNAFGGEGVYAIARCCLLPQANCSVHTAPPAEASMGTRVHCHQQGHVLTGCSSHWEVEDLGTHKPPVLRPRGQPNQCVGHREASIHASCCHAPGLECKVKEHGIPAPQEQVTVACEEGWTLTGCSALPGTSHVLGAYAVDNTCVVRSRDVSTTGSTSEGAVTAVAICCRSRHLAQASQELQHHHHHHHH
assay.remarks: BIAcore SPR; FIG. 3A
Consider the following binders and their measured Kd readings.
Output should be the measured figure followed by the unit it is expressed in.

Query :: # input binder: YW508.20.84 (antibody, V domains shown) VH: EVQLVESGGGLVQPGGSLRLSCAASGFTFTGYAIHWVRQAPGKGLEWVARISPANGNTNYADSVKGRFTISADTSKNTAYLQMNSLRAEDTAVYYCARWIGSRELYIMDYWGQGTLVTVSS VL: DIQMTQSPSSLSASVGDRVTITCRASQDVSTAVAWYQQKPGKAPKLLIYSASFLYSGVPSRFSGSGSGTDFTLTISSLQPEDFATYYCQQSYPAPSTFGQGTKVEIKR ; wanted: its Kd
Result :: 0.481 nM

Query :: Report Kd for YW508.20.28 (antibody, V domains shown) VH: EVQLVESGGGLVQPGGSLRLSCAASGFTFTRHTIHWVRQAPGKGLEWVARISPANGNTNYADSVKGRFTISADTSKNTAYLQMNSLRAEDTAVYYCARWIGSRELYIMDYWGQGTLVTVSS VL: DIQMTQSPSSLSASVGDRVTITCRASQDVSTAVAWYQQKPGKAPKLLIYSASFLYSGVPSRFSGSGSGTDFTLTISSLQPEDFATYYCQQSYRIQPTFGQGTKVEIKR please.
Result :: 0.349 nM
